target: MOP (Homo sapiens); assay: In vitro cAMP activity at MOP (Table 10); type: cell-based; conditions: cAMP inhibition, four-parameter regression
Sequence (P35372 whole entry): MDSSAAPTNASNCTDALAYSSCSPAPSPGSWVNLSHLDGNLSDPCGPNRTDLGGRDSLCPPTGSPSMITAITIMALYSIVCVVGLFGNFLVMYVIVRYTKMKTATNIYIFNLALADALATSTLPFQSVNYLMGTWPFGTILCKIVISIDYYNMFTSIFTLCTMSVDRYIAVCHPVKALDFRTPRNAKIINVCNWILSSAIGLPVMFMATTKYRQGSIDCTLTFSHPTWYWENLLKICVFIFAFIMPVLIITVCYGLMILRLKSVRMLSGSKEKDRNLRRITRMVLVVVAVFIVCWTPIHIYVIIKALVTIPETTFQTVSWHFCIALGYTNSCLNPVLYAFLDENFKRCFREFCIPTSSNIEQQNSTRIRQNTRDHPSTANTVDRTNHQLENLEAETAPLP
*1 amine or outer side, *2 acyl side, *3 side chain or, on linkers, in order; H or OH if unused. Where a SMILES comes first, the peptide text is derived from it. Bridges are numbered along the chain shown (N, C = ends). [ ]: non-standard residue; d: D form. ξ: configuration not given here. Phe(4-NO2) = N[C@@H](Cc1ccc([N+](=O)[O-])cc1)C(=O)O; NHCH2CMe2S = CC(C)(CN[*:1])S[*:2]; NMeR = CN[C@@H](CCCNC(=N)N)C(=O)O; X1 = CC(C)(CN[*:2])S[*:1]; ξC = NC(CS)C(=O)O; Sar = CNCC(=O)O
PARAMETER: EC50 (nM)

{"COMPOUND": "CC1(C)CNC(=O)C[C@H](NC(=O)[C@@H](N)Cc2ccc(O)cc2)C(=O)NCC(=O)N[C@@H](Cc2ccccc2)C(=O)NC(C(=O)N[C@@H](CCCNC(=N)N)C(=O)N[C@@H](CCCNC(=N)N)C(N)=O)CSS1 (stereo partly drawn) [CP2, c(Tyr-Asp-Gly-Phe-SSa-Arg-Arg)] (H-YDGF[ξC]RR-NH2; linker 2-5 via NHCH2CMe2S; N-terminus assumed)", "LIMIT_SIGN": "=", "OBS_VALUE": 2330}
{"COMPOUND": "CC1(C)CNC(=O)C[C@@H](C(=O)N[C@@H](CCCNC(=N)N)C(=O)N[C@@H](CCCNC(=N)N)C(N)=O)NC(=O)[C@H](Cc2ccccc2)NC(=O)C(NC(=O)CNC(=O)[C@@H](N)Cc2ccc(O)cc2)CSS1 (stereo partly drawn) [CP3, c(Tyr-Gly-SSa-Phe-Asp-Arg-Arg)] (H-YG[ξC]FDRR-NH2; linker 3-5 via X1; N-terminus assumed)", "LIMIT_SIGN": ">", "OBS_VALUE": 10000}
{"COMPOUND": "CC(C)C[C@H](NC(=O)[C@H](Cc1ccc([N+](=O)[O-])cc1)NC(=O)CN(C)C(=O)[C@@H](N)Cc1ccc(O)cc1)C(=O)N[C@@H](CCCNC(=N)N)C(=O)N(C)[C@@H](CCCNC(=N)N)C(=O)N[C@@H]1CC(=O)NCC(C)(C)SSC[C@H](C(=O)N[C@H](CCCCN)C(N)=O)NC(=O)[C@@H](CCCNC(=N)N)NC1=O [CP14] (H-Y[Sar][Phe(4-NO2)]LR[NMeR][dD][dR][dC][dK]-NH2; linker 7-9 via NHCH2CMe2S)", "LIMIT_SIGN": ">", "OBS_VALUE": 10000}
{"COMPOUND": "CC1(C)CNC(=O)C[C@@H](NC(=O)[C@@H](N)Cc2ccc(O)cc2)C(=O)NCC(=O)N[C@@H](Cc2ccccc2)C(=O)N[C@H](C(=O)N[C@@H](CCCNC(=N)N)C(=O)N[C@@H](CCCNC(=N)N)C(N)=O)CSS1 [DP-7-12, c(Tyr-D(Asp)-Gly-Phe-SSa-Arg-Arg)] (H-Y[dD]GFCRR-NH2; linker 2-5 via NHCH2CMe2S)", "LIMIT_SIGN": "=", "OBS_VALUE": 2.7}

Reference source: patent US20220089646A1
